Assignment: determine reported relative viability for the given compounds.
- System: EMC-BAC-2
- ASSAY_EXPLANATION: relative viability (nuclei count vs DMSO), 5 days (fraction); higher = more cells survive
- RUN_CONDITIONS: first compound 0.8 µM
Numbers only.

Solved cases below.
[
  {
    "COMPOUND": "O=c1[nH]c2ccccc2n1C1CCN(CCCC(c2ccc(F)cc2)c2ccc(F)cc2)CC1 [Pimozide] + O=C(c1cc(Cc2n[nH]c(=O)c3ccccc23)ccc1F)N1CCN(C(=O)C2CC2)CC1 [Olaparib] (partner 8 µM)",
    "relative viability": 0.455
  },
  {
    "COMPOUND": "O=c1[nH]c2ccccc2n1C1CCN(CCCC(c2ccc(F)cc2)c2ccc(F)cc2)CC1 [Pimozide] + CC(=O)c1c(C)c2cnc(Nc3ccc(N4CCNCC4)cn3)nc2n(C2CCCC2)c1=O [Palbociclib] (partner 0.5 µM)",
    "relative viability": 0.511
  },
  {
    "COMPOUND": "Cc1cnc(-c2cnc(NCCNc3ccc(C#N)cn3)nc2-c2ccc(Cl)cc2Cl)[nH]1 + NC(=O)Nc1cc(-c2cccc(F)c2)sc1C(=O)N[C@H]1CCCNC1 [AZD7762] (partner 0.2 µM)",
    "relative viability": 1.04
  }
]

**Query** Dear colleague, please send me the reported relative viability for Cc1cnc(-c2cnc(NCCNc3ccc(C#N)cn3)nc2-c2ccc(Cl)cc2Cl)[nH]1 + COc1cccc2cc(-c3nc([C@H]4CC[C@H](C(=O)O)CC4)n4ncnc(N)c34)[nH]c12 [OSI-027] (partner 0.5 µM) when you can.
**Result** 0.341

* * *

- System: HCC-827
- ASSAY_EXPLANATION: relative viability (nuclei count vs DMSO), 5 days (fraction); higher = more cells survive
- RUN_CONDITIONS: first compound 0.002 µM
RESULT_TYPE: relative viability
Answers are plain numbers.

**Query** Dear colleague, please send me the reported relative viability for CC(=O)O[C@@]12CO[C@@H]1C[C@H](O)[C@@]1(C)C(=O)[C@H](O)C3=C(C)[C@@H](OC(=O)[C@H](O)[C@@H](NC(=O)OC(C)(C)C)c4ccccc4)C[C@@](O)([C@@H](OC(=O)c4ccccc4)[C@H]21)C3(C)C [Docetaxel] + Nc1ncn([C@H]2C[C@H](O)[C@@H](CO)O2)c(=O)n1 [Decitabine] (partner 2 µM) when you can.
**Result** 0.279

* * *

- System: NCI-H358
- ASSAY_EXPLANATION: relative viability (nuclei count vs DMSO), 5 days (fraction); higher = more cells survive
- RUN_CONDITIONS: first compound 0.0002 µM
RESULT_TYPE: relative viability
Numbers only.

[
  {
    "MOLECULE": "CC(=O)O[C@@]12CO[C@@H]1C[C@H](O)[C@@]1(C)C(=O)[C@H](O)C3=C(C)[C@@H](OC(=O)[C@H](O)[C@@H](NC(=O)OC(C)(C)C)c4ccccc4)C[C@@](O)([C@@H](OC(=O)c4ccccc4)[C@H]21)C3(C)C [Docetaxel] + CC(=O)Nc1cccc(-n2c(=O)n(C3CC3)c(=O)c3c(Nc4ccc(I)cc4F)n(C)c(=O)c(C)c32)c1 [Trametinib] (partner 0.02 µM)",
    "relative viability": 0.167
  }
]

Provide each entry's relative viability from the list below.
1. CC(=O)O[C@@]12CO[C@@H]1C[C@H](O)[C@@]1(C)C(=O)[C@H](O)C3=C(C)[C@@H](OC(=O)[C@H](O)[C@@H](NC(=O)OC(C)(C)C)c4ccccc4)C[C@@](O)([C@@H](OC(=O)c4ccccc4)[C@H]21)C3(C)C [Docetaxel] + Cc1cc(Nc2cc(N3CCN(C)CC3)nc(Sc3ccc(NC(=O)C4CC4)cc3)n2)n[nH]1 [Tozasertib] (partner 0.1 µM)
2. CC(=O)O[C@@]12CO[C@@H]1C[C@H](O)[C@@]1(C)C(=O)[C@H](O)C3=C(C)[C@@H](OC(=O)[C@H](O)[C@@H](NC(=O)OC(C)(C)C)c4ccccc4)C[C@@](O)([C@@H](OC(=O)c4ccccc4)[C@H]21)C3(C)C [Docetaxel] + COc1cccc2cc(-c3nc([C@H]4CC[C@H](C(=O)O)CC4)n4ncnc(N)c34)[nH]c12 [OSI-027] (partner 0.5 µM)

**Result**
1: 0.114; 2: 0.738

* * *

- System: COR-L 105
- ASSAY_EXPLANATION: relative viability (nuclei count vs DMSO), 5 days (fraction); higher = more cells survive
- RUN_CONDITIONS: first compound 0.1581 µM
RESULT_TYPE: relative viability
Give bare numbers.

Solved cases below.
[
  {
    "COMPOUND": "Nc1ccn([C@@H]2O[C@H](CO)[C@@H](O)[C@@H]2O)c(=O)n1 [Cytarabine] + Cc1nc(NC(=O)N2CCC[C@H]2C(N)=O)sc1-c1ccnc(C(C)(C)C(F)(F)F)c1 [Alpelisib] (partner 2 µM)",
    "relative viability": 0.444
  },
  {
    "COMPOUND": "COc1cc2nccc(Oc3ccc(NC(=O)Nc4cc(C)on4)c(Cl)c3)c2cc1OC [Tivozanib] + CC(=O)Nc1cccc(-n2c(=O)n(C3CC3)c(=O)c3c(Nc4ccc(I)cc4F)n(C)c(=O)c(C)c32)c1 [Trametinib] (partner 0.02 µM)",
    "relative viability": 0.482
  }
]

# next compound below
**Query** Dear colleague, please send me the reported relative viability for Nc1ccn([C@@H]2O[C@H](CO)[C@@H](O)[C@@H]2O)c(=O)n1 [Cytarabine] + Nc1nc2[nH]cc(CCc3ccc(C(=O)N[C@@H](CCC(=O)O)C(=O)O)cc3)c2c(=O)[nH]1 [Pemetrexed] (partner 0.2 µM) when you can.
**Result** 0.579

* * *

- System: NCI-H661
- ASSAY_EXPLANATION: relative viability (nuclei count vs DMSO), 5 days (fraction); higher = more cells survive
- RUN_CONDITIONS: first compound 0.1581 µM
Assignment: determine reported relative viability for the given molecules.
One number for each entry.

Solved cases below.
[
  {
    "MOLECULE": "Nc1ccn([C@@H]2O[C@H](CO)[C@@H](O)[C@@H]2O)c(=O)n1 [Cytarabine] + C[C@@H](Oc1cc(-c2cnn(C3CCNCC3)c2)cnc1N)c1c(Cl)ccc(F)c1Cl [Crizotinib] (partner 1 µM)",
    "STUDY_TARGET": "NCI-H661",
    "READING": 0.975
  },
  {
    "MOLECULE": "Nc1ccn([C@@H]2O[C@H](CO)[C@@H](O)[C@@H]2O)c(=O)n1 [Cytarabine] + O=C(c1cc(Cc2n[nH]c(=O)c3ccccc23)ccc1F)N1CCN(C(=O)C2CC2)CC1 [Olaparib] (partner 8 µM)",
    "STUDY_TARGET": "NCI-H661",
    "READING": 0.518
  },
  {
    "MOLECULE": "Nc1ccn([C@@H]2O[C@H](CO)[C@@H](O)[C@@H]2O)c(=O)n1 [Cytarabine] + CS(=O)(=O)N1CCN(Cc2cc3nc(-c4cccc5[nH]ncc45)nc(N4CCOCC4)c3s2)CC1 [Pictilisib] (partner 1 µM)",
    "STUDY_TARGET": "NCI-H661",
    "READING": 0.284
  },
  {
    "MOLECULE": "COc1cc2nccc(Oc3ccc(NC(=O)Nc4cc(C)on4)c(Cl)c3)c2cc1OC [Tivozanib] + O=C(CCCCCCC(=O)Nc1ccccc1)NO [Vorinostat] (partner 1 µM)",
    "STUDY_TARGET": "NCI-H661",
    "READING": 0.8
  },
  {
    "MOLECULE": "Nc1ccn([C@@H]2O[C@H](CO)[C@@H](O)[C@@H]2O)c(=O)n1 [Cytarabine] + CC(=O)Nc1cccc(-n2c(=O)n(C3CC3)c(=O)c3c(Nc4ccc(I)cc4F)n(C)c(=O)c(C)c32)c1 [Trametinib] (partner 0.02 µM)",
    "STUDY_TARGET": "NCI-H661",
    "READING": 0.435
  }
]

# next molecule below
**Query** Dear colleague, please send me the reported relative viability for Nc1ccn([C@@H]2O[C@H](CO)[C@@H](O)[C@@H]2O)c(=O)n1 [Cytarabine] + O=C(CCCCCCC(=O)Nc1ccccc1)NO [Vorinostat] (partner 1 µM) when you can.
**Result** 0.513

* * *

- Test system: NCI-H3122
- ASSAY_EXPLANATION: relative viability (nuclei count vs DMSO), 5 days (fraction); higher = more cells survive
- RUN_CONDITIONS: first compound 0.1581 µM
Assignment: determine reported relative viability for the given compounds.
One number for each entry.

[
  {
    "COMPOUND": "COc1cc2nccc(Oc3ccc(NC(=O)Nc4cc(C)on4)c(Cl)c3)c2cc1OC [Tivozanib] + C[C@@H](Oc1cc(-c2cnn(C3CCNCC3)c2)cnc1N)c1c(Cl)ccc(F)c1Cl [Crizotinib] (partner 1 µM)",
    "RESULT_TYPE": "relative viability",
    "READING": 0.29
  }
]

Provide each entry's relative viability from the list below.
1. Nc1ccn([C@@H]2O[C@H](CO)[C@@H](O)[C@@H]2O)c(=O)n1 [Cytarabine] + Cc1nc(NC(=O)N2CCC[C@H]2C(N)=O)sc1-c1ccnc(C(C)(C)C(F)(F)F)c1 [Alpelisib] (partner 2 µM)
2. Nc1ccn([C@@H]2O[C@H](CO)[C@@H](O)[C@@H]2O)c(=O)n1 [Cytarabine] + Cc1cc(Nc2cc(N3CCN(C)CC3)nc(Sc3ccc(NC(=O)C4CC4)cc3)n2)n[nH]1 [Tozasertib] (partner 0.1 µM)
3. Nc1ccn([C@@H]2O[C@H](CO)[C@@H](O)[C@@H]2O)c(=O)n1 [Cytarabine] + C[C@]1(O)C[C@@H](c2nc(-c3ccc4ccc(-c5ccccc5)nc4c3)c3c(N)nccn32)C1 [Linsitinib] (partner 1 µM)
4. COc1cc2nccc(Oc3ccc(NC(=O)Nc4cc(C)on4)c(Cl)c3)c2cc1OC [Tivozanib] + CC(=O)Nc1cccc(-n2c(=O)n(C3CC3)c(=O)c3c(Nc4ccc(I)cc4F)n(C)c(=O)c(C)c32)c1 [Trametinib] (partner 0.02 µM)
5. COc1cc2nccc(Oc3ccc(NC(=O)Nc4cc(C)on4)c(Cl)c3)c2cc1OC [Tivozanib] + CC(=O)c1c(C)c2cnc(Nc3ccc(N4CCNCC4)cn3)nc2n(C2CCCC2)c1=O [Palbociclib] (partner 0.5 µM)
6. COc1cc2nccc(Oc3ccc(NC(=O)Nc4cc(C)on4)c(Cl)c3)c2cc1OC [Tivozanib] + COc1cccc2cc(-c3nc([C@H]4CC[C@H](C(=O)O)CC4)n4ncnc(N)c34)[nH]c12 [OSI-027] (partner 0.5 µM)
7. Nc1ccn([C@@H]2O[C@H](CO)[C@@H](O)[C@@H]2O)c(=O)n1 [Cytarabine] + CC(C)C[C@H](NC(=O)[C@H](Cc1ccccc1)NC(=O)c1cnccn1)B(O)O [Bortezomib] (partner 0.002 µM)

**Result**
1: 0.464; 2: 0.237; 3: 0.72; 4: 0.235; 5: 0.212; 6: 0.859; 7: 0.676
